Observable: melting point (°C)

CCN(CC)Cc1nc2ccccc2c(=O)n1N=Cc1ccc([N+](=O)[O-])cc1 | 155

A. Cc1ccc(C=Nn2c(CN3CCCC3)nc3ccccc3c2=O)cc1
B. CCN(CC)Cc1nc2ccccc2c(=O)n1N=Cc1ccccc1
*Q* Which has the smaller recorded melting point, A or B ? Use the label to indicate which entry you chose.
*A* B

====

Observable: melting point (°C)

O=c1c2ccccc2nc(CN2CCCC2)n1N=Cc1ccc(Cl)cc1 | 138
COc1ccc(C=Nn2c(CN3CCOCC3)nc3ccccc3c2=O)cc1 | 138
O=c1c2ccccc2nc(CN2CCOCC2)n1N=Cc1ccccc1 | 132
O=c1c2ccccc2nc(CN2CCCC2)n1N=Cc1ccc([N+](=O)[O-])cc1 | 156
COc1cc(C=Nn2c(CN3CCCC3)nc3ccccc3c2=O)cc(OC)c1OC | 166
